B1: 6YSE (parent)
chain: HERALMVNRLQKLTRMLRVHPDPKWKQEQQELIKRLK

variants of: B1; assay: folding stability dG (cDNA display proteolysis); higher = more stable; conditions: PBS, room temperature
// reported folding stability dG per item

Input Sequence	Measurement Units	folding stability dG
HERALMVNRLQKLTRMLRVHLDPKWKQEQQELIKRLK [P21L]	kcal/mol	0.688
HERALMVNRLQKLTRMLRVHPDPKWKQEQQELIKTLK [R35T]	kcal/mol	0.734
HERALMVNRLQKLTRMLLVHPDPKWKQEQQELIKRLK [R18L]	kcal/mol	1.2
HERALMVNRLQKLTRMLRVHPDPGWKQEQQELIKRLK [K24G]	kcal/mol	0.85
HERALFVNRLQKLTRMLRVHPDPKWKQEQQELIKRLK [M6F]	kcal/mol	-0.384
HERALMVNRLQGLTRMLRVHPDPKWKQEQQELIKRLK [K12G]	kcal/mol	-0.272
HERALMVNRLQKLTRMLRVHPDPKWKQEQQELIKWLK [R35W]	kcal/mol	1.42
HERALMMNRLQKLTRMLRVHPDPKWKQEQQELIKRLK [V7M]	kcal/mol	1.59
HERALMVNRLQKLTRMLRVHMDPKWKQEQQELIKRLK [P21M]	kcal/mol	1.13
HERALMVNRLQKLTRMRRVHPDPKWKQEQQELIKRLK [L17R]	kcal/mol	-0.68
HERALMVNRLQKLTRMLRVHPDPKWKQVQQELIKRLK [E28V]	kcal/mol	0.452
HERALMVNRLQQLTRMLRVHPDPKWKQEQQELIKRLK [K12Q]	kcal/mol	1.71
HERALMVNRLQKLTRMSRVHPDPKWKQEQQELIKRLK [L17S]	kcal/mol	-0.127
HERALMVNRLQKLTRMLRVHPDPKWKTEQQELIKRLK [Q27T]	kcal/mol	1.01
HERALMVNRLQKLTRMLRVHPDPKWKQEQQELIKRLR [K37R]	kcal/mol	1.55
HWRALMVNRLQKLTRMLRVHPDPKWKQEQQELIKRLK [E2W]	kcal/mol	1.65
HERALMVNRLQKLTRMLRVHPDPKWKQEQQDLIKRLK [E31D]	kcal/mol	1.38
HERALMVNRLQKLTRMLRVHPDPKWKQEQQGLIKRLK [E31G]	kcal/mol	0.441
HERALMVNRLQKLTRMLRVHPDPKWKQEQQELINRLK [K34N]	kcal/mol	1
HERALMVNRLQKLTYMLRVHPDPKWKQEQQELIKRLK [R15Y]	kcal/mol	0.918
HERNLMVNRLQKLTRMLRVHPDPKWKQEQQELIKRLK [A4N]	kcal/mol	1.31
HERALYVNRLQKLTRMLRVHPDPKWKQEQQELIKRLK [M6Y]	kcal/mol	-0.185
